# assay target: Acetylcholinesterase (Homo sapiens) (UniProt P22303)
# Sequence (P22303 whole entry, looked up): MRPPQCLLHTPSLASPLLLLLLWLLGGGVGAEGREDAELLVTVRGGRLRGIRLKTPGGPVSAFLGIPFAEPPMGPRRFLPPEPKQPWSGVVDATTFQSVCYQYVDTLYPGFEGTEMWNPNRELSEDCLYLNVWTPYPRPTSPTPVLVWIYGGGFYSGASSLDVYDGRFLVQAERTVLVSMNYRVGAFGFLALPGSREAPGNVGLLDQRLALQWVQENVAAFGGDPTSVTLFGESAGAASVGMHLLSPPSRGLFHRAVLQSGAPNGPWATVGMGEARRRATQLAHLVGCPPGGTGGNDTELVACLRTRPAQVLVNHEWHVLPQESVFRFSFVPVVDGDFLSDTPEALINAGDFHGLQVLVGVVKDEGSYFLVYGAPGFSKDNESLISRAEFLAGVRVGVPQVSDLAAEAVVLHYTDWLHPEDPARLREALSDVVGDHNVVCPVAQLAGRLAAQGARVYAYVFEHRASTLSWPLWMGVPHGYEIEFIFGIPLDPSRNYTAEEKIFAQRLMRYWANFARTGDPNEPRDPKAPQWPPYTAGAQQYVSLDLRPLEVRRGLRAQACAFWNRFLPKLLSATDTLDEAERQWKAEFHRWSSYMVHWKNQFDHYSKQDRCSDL
# assay method text: Acetylcholinesterase (AChE) small molecule antagonists: enzyme-based qHTS assay (AID 1347397); also: nearly all actives have a fitted effect of over 55% in size
# applied conditions: AChE enzyme activity inhibition; series mostly up to 115 µM
The source made the active and inactive calls. Calls follow the shape of the full dose curve.
Field 'call' accepts active, inactive

### Prompt Answer briefly: the call reported for NC(=O)CCl in this assay.
### Response inactive

### Prompt Answer briefly: the call reported for N#CCc1ccc(Cl)cc1 in this assay.
### Response inactive

### Prompt Answer briefly: the call reported for C[C@]12CC[C@H](O)C[C@H]1CC[C@@H]1[C@@H]2C[C@@H](O)[C@]2(C)[C@@H](C3=CC(=O)OC3)CC[C@]12O in this assay.
### Response inactive

### Prompt Answer briefly: the call reported for CN(C)CCc1c[nH]c2ccc(O)cc12 in this assay.
### Response inactive

### Prompt Answer briefly: the call reported for CCN in this assay.
### Response inactive

### Prompt Answer briefly: the call reported for c1ccc(Nc2ccc3ccccc3c2)cc1 in this assay.
### Response inactive

### Prompt Answer briefly: the call reported for CCCN(CC)CC1COC2(CCC(C(C)(C)C)CC2)O1 (centres undefined) in this assay.
### Response inactive

### Prompt Answer briefly: the call reported for CCCCOP(=O)(CCCC)OCCCC in this assay.
### Response inactive

### Prompt Answer briefly: the call reported for CC(=O)/C=C/c1ccc2c(c1)OCO2 in this assay.
### Response inactive

### Prompt Answer briefly: the call reported for CC(C)Oc1cccc(NC(=O)c2ccccc2C(F)(F)F)c1 in this assay.
### Response inactive

### Prompt Answer briefly: the call reported for CC(C)CCCCCCCOP(=O)(Oc1ccccc1)Oc1ccccc1 in this assay.
### Response inactive

### Prompt Answer briefly: the call reported for CC(=O)OC1(c2ccccc2)CCN(CCc2ccccc2)CC1 in this assay.
### Response inactive

### Prompt Answer briefly: the call reported for C=CC(=O)OCC(COC(=O)C=C)(COC(=O)C=C)COC(=O)C=C in this assay.
### Response inactive

### Prompt Answer briefly: the call reported for COP(=O)(OC)SCn1c(=O)oc2cc(Cl)cnc21 in this assay.
### Response active

----------
# assay method text: qHTS assay to identify small molecule antagonists of the androgen receptor (AR) signaling pathway - cell viability counter screen (AID 743033; also: nearly all actives have a fitted effect of over 45% in size)
# applied conditions: AR-bla HEK293 viability, CellTiter-Glo luminescence, 16 h; series mostly up to 58.5 µM
Inconclusive results are not listed. Calls of active or inactive are those of the source. The call rests on the fitted dose curve; in most records, active means well fitted cell-killing curve with a large enough effect in the repeat runs; inconclusive means weak or mixed curves; inactive means no such curve, though single readings can be large or run the other way.
Field 'call' accepts active, inactive

Example entries and their recorded answers appear below.
compound=CCN(CC)C(=S)[S-].CCN(CC)C(=S)[S-].[Zn+2] cat=active
compound="COc1ccc(OC)c(CC(C)N)c1 (stereo unspecified)" cat=inactive
compound=ClC(Cl)=C(Cl)Cl cat=inactive

### Prompt Answer briefly: the call reported for CCCCCCCCCCCCCCC(Br)C(=O)O (stereo unspecified) in this assay.
### Response inactive

### Prompt Answer briefly: the call reported for O=C1NCN(c2ccccc2)C12CCN(CC1COc3ccccc3O1)CC2 (stereo unspecified) in this assay.
### Response inactive

### Prompt Answer briefly: the call reported for CCc1nn(C)c(C(=O)NCc2ccc(C(C)(C)C)cc2)c1Cl in this assay.
### Response active

### Prompt Answer briefly: the call reported for O=C(CBr)c1ccc(O)cc1 in this assay.
### Response inactive
